These entries and their values trace back to patent US12303509B2.

Reported Papp at 2 h, 1 µM values for the following compounds.
procedureText: MDR1 LLC-PK1 and BCRP MDCKII permeability assay: permeability coefficient (Papp)
Type: in vitro ADME
Where a name gives a salt, the structure may show the parent alone.

{"compound": "Cn1cnc2ccc(Oc3c(F)ccc(NS(=O)(=O)N4CC(F)C4)c3Cl)c(Cl)c2c1=O [Example 120]", "Papp at 2 h, 1 µM / ×10⁻⁶ cm/s": 30}
{"compound": "CO[C@@H]1CCN(S(=O)(=O)Nc2ccc(F)c(Nc3ccc4ncn(C)c(=O)c4c3C)c2Cl)C1 [Example 1]", "Papp at 2 h, 1 µM / ×10⁻⁶ cm/s": 31}
{"compound": "Cc1c(Nc2c(F)ccc(NS(=O)(=O)N3CCCC3)c2F)ccc2ncn(C)c(=O)c12 [Example 113, trifluoroacetate]", "Papp at 2 h, 1 µM / ×10⁻⁶ cm/s": 18}
{"compound": "Cc1c(Nc2c(F)ccc(NS(=O)(=O)N3CCCCC3)c2Cl)ccc2ncn(C)c(=O)c12 [Example 84]", "Papp at 2 h, 1 µM / ×10⁻⁶ cm/s": 18}
{"compound": "Cc1c(Nc2c(F)ccc(NS(=O)(=O)N3CC4CC4(F)C3)c2Cl)ccc2ncn(C)c(=O)c12 (stereo not drawn) [Example 149]", "Papp at 2 h, 1 µM / ×10⁻⁶ cm/s": 25}
{"compound": "Cn1cnc2ccc(Oc3c(F)ccc(NS(=O)(=O)N4CCC(F)(F)C4)c3Cl)c(F)c2c1=O [Example 63]", "Papp at 2 h, 1 µM / ×10⁻⁶ cm/s": 39}
{"compound": "CO[C@@H]1CCN(S(=O)(=O)Nc2cc(F)c(F)c(Nc3ccc4ncn(C)c(=O)c4c3F)c2Cl)C1 [Example 47, trifluoroacetate]", "Papp at 2 h, 1 µM / ×10⁻⁶ cm/s": 26}
{"compound": "Cc1c(Oc2c(F)ccc(NS(=O)(=O)N3CC[C@@H](OC(F)F)C3)c2Cl)ccc2ncn(C)c(=O)c12.O=C(O)C(F)(F)F [Example 57]", "Papp at 2 h, 1 µM / ×10⁻⁶ cm/s": 25}
{"compound": "CCC1CCN(S(=O)(=O)Nc2ccc(F)c(Nc3ccc4ncn(C)c(=O)c4c3Cl)c2Cl)C1 (stereo not drawn) [Example 94, trifluoroacetate]", "Papp at 2 h, 1 µM / ×10⁻⁶ cm/s": 22}
{"compound": "Cc1c(Nc2c(F)ccc(NS(=O)(=O)N3C[C@@H](F)[C@@H](F)C3)c2Cl)ccc2ncn(C)c(=O)c12 [Example 90]", "Papp at 2 h, 1 µM / ×10⁻⁶ cm/s": 31}
{"compound": "Cn1cnc2ccc(Nc3c(F)ccc(NS(=O)(=O)N4CC[C@@H](F)C4)c3Cl)c(F)c2c1=O [Example 14]", "Papp at 2 h, 1 µM / ×10⁻⁶ cm/s": 28}
{"compound": "Cc1c(Nc2c(F)c(F)cc(NS(=O)(=O)N3C[C@@H](F)[C@@H](F)C3)c2Cl)ccc2ncn(C)c(=O)c12 [Example 95]", "Papp at 2 h, 1 µM / ×10⁻⁶ cm/s": 25}
{"compound": "Cn1cnc2ccc(Nc3c(F)ccc(NS(=O)(=O)N4CC[C@@H](OC(F)F)C4)c3Cl)c(F)c2c1=O [Example 26]", "Papp at 2 h, 1 µM / ×10⁻⁶ cm/s": 31}
{"compound": "Cn1cnc2ccc(Nc3c(F)ccc(NS(=O)(=O)N4CC5(CCC5)C4)c3Cl)c(Cl)c2c1=O [Example 158, trifluoroacetate]", "Papp at 2 h, 1 µM / ×10⁻⁶ cm/s": 26}
{"compound": "Cn1cnc2ccc(Nc3c(F)ccc(NS(=O)(=O)N4CC[C@H](F)C4)c3Cl)c(Cl)c2c1=O [Example 28]", "Papp at 2 h, 1 µM / ×10⁻⁶ cm/s": 37}
{"compound": "Cc1c(Nc2c(F)c(F)cc(NS(=O)(=O)N(C)C)c2Cl)ccc2ncn(C)c(=O)c12 [Example 98]", "Papp at 2 h, 1 µM / ×10⁻⁶ cm/s": 31}
{"compound": "Cn1cnc2ccc(Nc3c(F)c(F)cc(NS(=O)(=O)N4CC[C@@H](F)C4)c3Cl)c(F)c2c1=O [Example 46, trifluoroacetate]", "Papp at 2 h, 1 µM / ×10⁻⁶ cm/s": 30}
{"compound": "Cc1c(Nc2c(F)ccc(NS(=O)(=O)N3CCC(F)(F)C3)c2Cl)ccc2ncn(C)c(=O)c12 [Example 93]", "Papp at 2 h, 1 µM / ×10⁻⁶ cm/s": 33}

---

Tested on: H1755 cells
procedureText: Cellular phospho-ERK inhibition assay in H1755 cells
Format: cell-based
assaySetup: Homo sapiens, NCI-H1755, 2 hours treatment, read-out: H1755 Cell IC50
Counter-ions that a name gives are not always drawn.
Rule: IC50 below 200 nM gives fulfilled, anything at or above gives not fulfilled.

{"compound": "CO[C@@H]1CCN(S(=O)(=O)Nc2cc(F)cc(Nc3ccc4ncn(C)c(=O)c4c3C)c2Cl)C1", "measuredTarget": "H1755 cells", "qualitativeLabel": "not fulfilled"}
{"compound": "CO[C@@H]1CCN(S(=O)(=O)Nc2ccc(F)c(Nc3ccc4ncn(C)c(=O)c4c3Br)c2Cl)C1 [Example 8, trifluoroacetate]", "measuredTarget": "H1755 cells", "qualitativeLabel": "fulfilled"}
{"compound": "Cc1c(Nc2c(F)ccc(NS(=O)(=O)N3CC4C(F)C4C3)c2Cl)ccc2ncn(C)c(=O)c12 (stereo not drawn)", "measuredTarget": "H1755 cells", "qualitativeLabel": "not fulfilled"}
{"compound": "Cn1cnc2ccc(Nc3c(F)ccc(NS(=O)(=O)N4CC(F)(F)C4)c3Cl)c(Cl)c2c1=O", "measuredTarget": "H1755 cells", "qualitativeLabel": "fulfilled"}
{"compound": "Cn1cnc2ccc(Nc3c(F)ccc(NS(=O)(=O)N4CC(F)C4)c3Cl)c(Cl)c2c1=O", "measuredTarget": "H1755 cells", "qualitativeLabel": "fulfilled"}
{"compound": "Cn1cnc2ccc(Nc3c(F)ccc(NS(=O)(=O)N4CCC(F)(F)C4)c3Cl)c(Cl)c2c1=O [Example 25, trifluoroacetate]", "measuredTarget": "H1755 cells", "qualitativeLabel": "fulfilled"}
{"compound": "Cc1c(Nc2c(F)ccc(NS(=O)(=O)N3CC(F)(F)C3)c2Cl)ccc2ncn(C)c(=O)c12", "measuredTarget": "H1755 cells", "qualitativeLabel": "not fulfilled"}
{"compound": "CN(C)S(=O)(=O)Nc1ccc(F)c(Nc2ccc3ncn(C)c(=O)c3c2Cl)c1Cl", "measuredTarget": "H1755 cells", "qualitativeLabel": "fulfilled"}
{"compound": "Cn1cnc2ccc(Oc3c(F)ccc(NS(=O)(=O)N4CC5CC5C4)c3Cl)c(Cl)c2c1=O (stereo not drawn)", "measuredTarget": "H1755 cells", "qualitativeLabel": "not fulfilled"}

---

measuredTarget: full-length FLAG-tagged B-Raf(V600E) (Homo sapiens (Human), UniProt P15056, V600E)
Sequence (P15056 whole entry V600E): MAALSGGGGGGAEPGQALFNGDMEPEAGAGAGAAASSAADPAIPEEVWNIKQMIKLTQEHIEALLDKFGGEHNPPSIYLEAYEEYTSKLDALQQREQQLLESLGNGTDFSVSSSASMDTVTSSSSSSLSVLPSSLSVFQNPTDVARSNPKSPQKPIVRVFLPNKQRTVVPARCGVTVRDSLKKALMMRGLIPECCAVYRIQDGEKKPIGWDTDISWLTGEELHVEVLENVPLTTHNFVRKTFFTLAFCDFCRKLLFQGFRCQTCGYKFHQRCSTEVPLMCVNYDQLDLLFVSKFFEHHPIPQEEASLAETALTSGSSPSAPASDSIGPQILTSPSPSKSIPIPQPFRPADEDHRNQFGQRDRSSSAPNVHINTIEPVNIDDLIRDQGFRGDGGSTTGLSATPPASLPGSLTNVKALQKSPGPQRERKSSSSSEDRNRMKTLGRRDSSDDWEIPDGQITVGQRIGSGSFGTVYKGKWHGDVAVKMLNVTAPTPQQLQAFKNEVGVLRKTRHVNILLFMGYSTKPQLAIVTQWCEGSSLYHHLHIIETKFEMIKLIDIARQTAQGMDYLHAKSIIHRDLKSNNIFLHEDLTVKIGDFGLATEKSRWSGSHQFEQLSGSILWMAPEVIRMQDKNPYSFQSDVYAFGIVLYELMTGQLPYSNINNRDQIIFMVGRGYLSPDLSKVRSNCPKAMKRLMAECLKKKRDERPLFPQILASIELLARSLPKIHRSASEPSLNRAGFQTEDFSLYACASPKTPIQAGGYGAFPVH
procedureText: BRAF V600E enzyme assay (TR-FRET competitive displacement)
Assay type: binding
assaySetup: averaged IC50; TR-FRET tracer displacement, 60 min
pIC50: −log10 of the molar value. Structures can show the parent of a compound that is named as a salt.
If the reported pIC50 equals or exceeds 8, assign t. If not, assign f.

{"compound": "Cn1cnc2ccc(Oc3c(F)ccc(NS(=O)(=O)N4CC(F)C4)c3Cl)c(Cl)c2c1=O", "measuredTarget": "full-length FLAG-tagged B-Raf(V600E) (Homo sapiens (Human), UniProt P15056, V600E)", "qualitativeLabel": "t"}
{"compound": "Cn1cnc2ccc(Nc3c(F)ccc(NS(=O)(=O)N4CC(F)(F)C4)c3Cl)c(Cl)c2c1=O", "measuredTarget": "full-length FLAG-tagged B-Raf(V600E) (Homo sapiens (Human), UniProt P15056, V600E)", "qualitativeLabel": "t"}
{"compound": "CCN(C)S(=O)(=O)Nc1ccc(F)c(Oc2ccc3ncn(C)c(=O)c3c2F)c1Cl", "measuredTarget": "full-length FLAG-tagged B-Raf(V600E) (Homo sapiens (Human), UniProt P15056, V600E)", "qualitativeLabel": "f"}
{"compound": "CCC1CCN(S(=O)(=O)Nc2ccc(F)c(Nc3ccc4ncn(C)c(=O)c4c3Cl)c2Cl)C1 (stereo not drawn) [Example 94, trifluoroacetate]", "measuredTarget": "full-length FLAG-tagged B-Raf(V600E) (Homo sapiens (Human), UniProt P15056, V600E)", "qualitativeLabel": "f"}
{"compound": "Cn1cnc2ccc(Nc3c(F)ccc(NS(=O)(=O)N4CC[C@@H](F)C4)c3Cl)c(Cl)c2c1=O", "measuredTarget": "full-length FLAG-tagged B-Raf(V600E) (Homo sapiens (Human), UniProt P15056, V600E)", "qualitativeLabel": "t"}
{"compound": "Cc1c(Nc2c(F)ccc(NS(=O)(=O)N3CC(COCF)C3)c2Cl)ccc2ncn(C)c(=O)c12 [Example 164, trifluoroacetate]", "measuredTarget": "full-length FLAG-tagged B-Raf(V600E) (Homo sapiens (Human), UniProt P15056, V600E)", "qualitativeLabel": "f"}
{"compound": "Cc1c(Nc2c(F)ccc(NS(=O)(=O)N3CC(COC(F)(F)F)C3)c2Cl)ccc2ncn(C)c(=O)c12 [Example 156, trifluoroacetate]", "measuredTarget": "full-length FLAG-tagged B-Raf(V600E) (Homo sapiens (Human), UniProt P15056, V600E)", "qualitativeLabel": "f"}
{"compound": "CCOC1CN(S(=O)(=O)Nc2ccc(F)c(Nc3ccc4ncn(C)c(=O)c4c3Cl)c2Cl)C1", "measuredTarget": "full-length FLAG-tagged B-Raf(V600E) (Homo sapiens (Human), UniProt P15056, V600E)", "qualitativeLabel": "f"}
{"compound": "Cn1cnc2ccc(Oc3c(F)ccc(NS(=O)(=O)N4CC[C@H](F)C4)c3Cl)c(Cl)c2c1=O", "measuredTarget": "full-length FLAG-tagged B-Raf(V600E) (Homo sapiens (Human), UniProt P15056, V600E)", "qualitativeLabel": "t"}
{"compound": "Cn1cnc2ccc(Oc3c(F)ccc(NS(=O)(=O)N4CC5CC5C4)c3Cl)c(Cl)c2c1=O (stereo not drawn)", "measuredTarget": "full-length FLAG-tagged B-Raf(V600E) (Homo sapiens (Human), UniProt P15056, V600E)", "qualitativeLabel": "t"}
{"compound": "Cc1c(Nc2c(F)ccc(NS(=O)(=O)N3CC(C)C3)c2Cl)ccc2ncn(C)c(=O)c12 [Example 147, trifluoroacetate]", "measuredTarget": "full-length FLAG-tagged B-Raf(V600E) (Homo sapiens (Human), UniProt P15056, V600E)", "qualitativeLabel": "f"}
{"compound": "Cc1c(Nc2c(F)ccc(NS(=O)(=O)N3CC(OC(F)(F)F)C3)c2Cl)ccc2ncn(C)c(=O)c12", "measuredTarget": "full-length FLAG-tagged B-Raf(V600E) (Homo sapiens (Human), UniProt P15056, V600E)", "qualitativeLabel": "f"}
{"compound": "Cc1c(Nc2c(F)ccc(NS(=O)(=O)N3CC4C(F)C4C3)c2Cl)ccc2ncn(C)c(=O)c12 (stereo not drawn)", "measuredTarget": "full-length FLAG-tagged B-Raf(V600E) (Homo sapiens (Human), UniProt P15056, V600E)", "qualitativeLabel": "f"}
